Reference for the values: ChEMBL document CHEMBL5512692

Documented CAC across a set of compounds
test-summary: Aggregation property of compound in 50 mM KPi buffer at pH 7 assessed as critical aggregation concentration by DLS assay
Assay type: physicochemical

{"compound": "Cc1cc(O)c2c(c1)C(=O)c1cc(O)cc(O)c1C2=O", "CAC": "8.6 µM"}
{"compound": "C[C@]12CC[C@@H]3c4ccc(OC(=O)c5ccccc5)cc4CC[C@H]3[C@@H]1CC[C@@H]2O [ESTRADIOL BENZOATE]", "CAC": "9.3 µM"}
{"compound": "Cc1cc(O)c2c(=O)c3c(O)cc(O)c4c5c(O)cc(O)c6c(=O)c7c(O)cc(C)c8c1c2c(c34)c(c78)c65", "CAC": "3.3 µM"}
{"compound": "C=C(C)[C@@H]1CCC(C)=C[C@H]1c1c(O)cc(CCCCC)c(C(=O)O)c1O", "CAC": "61 µM"}
{"compound": "CC1(C)Cc2c(-c3ccccc3)c(-c3ccc(Cl)cc3)c(CC(=O)O)n2C1", "CAC": "54 µM"}
{"compound": "CC(C)=CCc1c(O)ccc(C(=O)/C=C/c2ccc(O)cc2)c1O", "CAC": "6.1 µM"}
{"compound": "CCCCCc1cc(O)c(C/C=C(\\C)CCC=C(C)C)c(O)c1C(=O)O", "CAC": "12 µM"}
{"compound": "O=c1cc(-c2ccc(O)c(O)c2)oc2cc(O)cc(O)c12", "CAC": "83 µM"}

###

Documented Activity across a set of compounds
Species: Sus scrofa
test-summary: Inhibition of porcine heart MDH using oxaloacetic acid as substrate assessed as enzyme recovery by measuring residual activity at approximately IC90 preincubated for 5 mins in presence of triton X-0.01% followed by substrate and […] addition and measured for 80 sec by absorbance based analysis relative to control
details: time 380.0 sec

{"compound": "CC(C)C(=O)OCC(=O)[C@@]12O[C@H](C3CCCCC3)O[C@@H]1C[C@H]1[C@@H]3CCC4=CC(=O)C=C[C@]4(C)[C@H]3[C@@H](O)C[C@@]12C [CICLESONIDE]", "Activity [%]": 66.1}
{"compound": "Cc1ccc(C(=O)Nc2ccc(S(=O)(=O)O)c3cc(S(=O)(=O)O)cc(S(=O)(=O)O)c23)cc1NC(=O)c1cccc(NC(=O)Nc2cccc(C(=O)Nc3cc(C(=O)Nc4ccc(S(=O)(=O)O)c5cc(S(=O)(=O)O)cc(S(=O)(=O)O)c45)ccc3C)c2)c1", "Activity [%]": -4.8}

###

Species: Sus scrofa
test-summary: Inhibition of porcine heart MDH using oxaloacetic acid as substrate assessed as enzyme recovery by measuring residual activity at approximately IC90 preincubated for 5 mins in presence of 10 mg/ml BSA followed by enzyme addition and measured after 5 mins by absorbance based analysis relative to control
details: time 10.0 min
Documented Activity across a set of compounds
value-kind: Activity (%)

{"compound": "O=c1cc(-c2ccc(O)c(O)c2)oc2cc(O)cc(O)c12", "uom": "%", "observed-measurement": 107}
{"compound": "O=c1c(O)c(-c2ccc(O)c(O)c2)oc2cc(O)cc(O)c12", "uom": "%", "observed-measurement": 108}
{"compound": "O=C(O[C@@H]1Cc2c(O)cc(O)cc2O[C@@H]1c1cc(O)c(O)c(O)c1)c1cc(O)c(O)c(O)c1 [EPIGALOCATECHIN GALLATE]", "uom": "%", "observed-measurement": 53}
